- System: RS4-11
- procedure-summary: Cytotoxicity against human RS4-11 cells assessed as reduction in cell viability measured after 48 hrs by celltiter-glo assay
- Format: functional, cell-based
- condition-summary: RS4-11, 48 h
pEC50: −log10 of the molar value.
readout-type: pEC50

O=C(NS(=O)(=O)c1ccc(N[C@H](CCN2CCOCC2)CSc2ccccc2)c(S(=O)(=O)C(F)(F)F)c1)c1csc(N2CCc3cccc(C(=O)Nc4nc5ccccc5s4)c3C2)n1 | < 5.30
CN(C)CC[C@H](CSc1ccccc1)Nc1ccc(S(=O)(=O)NC(=O)c2csc(N3CCc4cccc(C(=O)Nc5nc6ccccc6s5)c4C3)n2)cc1[N+](=O)[O-] | < 5.30

----------
- measurement-target: Induced myeloid leukemia cell differentiation protein Mcl-1 (Homo sapiens, UniProt Q07820)
- Sequence (Q07820 whole entry): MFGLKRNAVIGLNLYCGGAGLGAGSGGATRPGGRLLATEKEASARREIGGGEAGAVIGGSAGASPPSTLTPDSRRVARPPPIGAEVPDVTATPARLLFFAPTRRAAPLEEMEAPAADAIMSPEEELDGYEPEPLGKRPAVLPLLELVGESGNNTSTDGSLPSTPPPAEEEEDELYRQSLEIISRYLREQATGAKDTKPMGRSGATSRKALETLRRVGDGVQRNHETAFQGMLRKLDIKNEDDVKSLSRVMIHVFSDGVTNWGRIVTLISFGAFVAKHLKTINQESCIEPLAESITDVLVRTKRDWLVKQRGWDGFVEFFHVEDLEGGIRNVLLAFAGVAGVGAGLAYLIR
- procedure-summary: Inhibition of F-Bak binding to GST-tagged MCL1 (unknown origin) measured after 1 hr by TR-FRET assay
pKi: −log10 of the molar value.
Listing of recorded pKi by entry.
readout-type: pKi

CN(C)CC[C@H](CSc1ccccc1)Nc1ccc(S(=O)(=O)NC(=O)c2csc(N3CCc4cccc(C(=O)Nc5nc6ccccc6s5)c4C3)n2)cc1[N+](=O)[O-] | < 5.81
O=C(NS(=O)(=O)c1ccc(N[C@H](CCN2CCOCC2)CSc2ccccc2)c(S(=O)(=O)C(F)(F)F)c1)c1csc(N2CCc3cccc(C(=O)Nc4nc5ccccc5s4)c3C2)n1 | < 5.41

----------
pKi: −log10 of the molar value.
Test system UniProt:Q07817, pKi listed for each of the compounds.
Sequence (Q07817 whole entry): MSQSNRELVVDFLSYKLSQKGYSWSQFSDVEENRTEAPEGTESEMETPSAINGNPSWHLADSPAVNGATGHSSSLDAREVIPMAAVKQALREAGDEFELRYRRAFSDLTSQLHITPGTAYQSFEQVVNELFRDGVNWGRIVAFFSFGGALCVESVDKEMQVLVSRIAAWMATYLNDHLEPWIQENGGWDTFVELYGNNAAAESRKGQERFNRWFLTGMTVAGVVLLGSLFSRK
readout-type: pKi

O=C(NS(=O)(=O)c1ccc(N[C@H](CCN2CCOCC2)CSc2ccccc2)c(S(=O)(=O)C(F)(F)F)c1)c1csc(N2CCc3cccc(C(=O)Nc4nc5ccccc5s4)c3C2)n1 | 9.37
CN(C)CC[C@H](CSc1ccccc1)Nc1ccc(S(=O)(=O)NC(=O)c2csc(N3CCc4cccc(C(=O)Nc5nc6ccccc6s5)c4C3)n2)cc1[N+](=O)[O-] | 9.85

Data credit: ChEMBL document CHEMBL4706772
